Target: progesterone receptor (Homo sapiens, UniProt P06401)
Experiment: T47D alkaline phosphatase assay for progesterone receptor modulator (antagonist) activity
Format: cell-based
Parameters: endogenous in cells; host or cells: T47D cells
Settings: T47D cells, antagonist mode in the presence of 1 nM progesterone, 24 hours
Description: An assay was performed to identify compounds having progesterone receptor modulator activity. This assay identifies progestins or antiprogestins by determining a compound's effect on alkaline phosphatase activity in T47D cells. […] Analysis of dose-response data. […] EC50 or IC50 values are calculated from the retransformed values. […]
The label yes is reserved for IC50 strictly under 0.03 µM; no covers values equal to or above it.

> print(dat)
                                entry.smiles  qualitative.label
 1     Cn1c(C#N)ccc1-c1ccc(N2CCCS2(=O)=O)cc1                 no
 2   CCS(=O)(=O)Nc1ccc(-c2ccc(C#N)n2C)c(F)c1                yes
 3      C=C(C)C(=O)Nc1ccc(-c2ccc(C#N)n2C)cc1                 no
 4      Cn1c(C#N)ccc1-c1ccc(NC(=O)C2CCC2)cc1                 no
 5              Cn1c(C#N)ccc1-c1ccc(N)c(F)c1                 no
 6   Cn1c(C#N)ccc1-c1c(F)cc(NS(C)(=O)=O)cc1F                yes
 7  CCCCS(=O)(=O)Nc1ccc(-c2ccc(C#N)n2C)c(C(F)(F)F)c1                 no
 8       Cn1c(C#N)ccc1-c1ccc(NS(C)(=O)=O)cc1                yes
 9         CCCC(=O)Nc1ccc(-c2ccc(C#N)n2C)cc1                 no
10  CCCCS(=O)(=O)Nc1cc(F)c(-c2ccc(C#N)n2C)cc1F                 no
11  Cn1c(C#N)ccc1-c1ccc(NS(C)(=O)=O)cc1C(F)(F)F                yes
12          Cn1c(C#N)ccc1-c1ccc(NC#N)c(Cl)c1                 no
13  Cn1c(C#N)ccc1-c1ccc(NC(=O)Nc2ccc(-c3ccc(C#N)n3C)cc2)cc1                 no
14  CCCCS(=O)(=O)Nc1ccc(-c2ccc(C#N)n2C)c(F)c1                yes
15   CC(C)S(=O)(=O)Nc1ccc(-c2ccc(C#N)n2C)cc1                yes
16   Cn1c(C#N)ccc1-c1cc(F)c(NS(C)(=O)=O)cc1F                 no
17  CCS(=O)(=O)Nc1cc(F)c(-c2ccc(C#N)n2C)cc1F                yes
18    Cn1c(C#N)ccc1-c1ccc(NC(=O)C2CCCCC2)cc1                 no
19  CCCS(=O)(=O)Nc1ccc(-c2ccc(C#N)n2C)c(F)c1                yes
20  CCCCS(=O)(=O)Nc1cc(F)c(-c2ccc(C#N)n2C)c(F)c1                yes
21  CCCS(=O)(=O)Nc1ccc(-c2ccc(C#N)n2C)c(C#N)c1                 no
22     CCn1c(C#N)ccc1-c1ccc(NS(=O)(=O)CC)cc1                 no
23              Cn1c(C#N)ccc1-c1ccc(NC#N)cc1                 no
24  CCS(=O)(=O)Nc1ccc(-c2ccc(C#N)n2C)cc1OC(F)(F)F                 no
25    CCS(=O)(=O)Nc1ccc(-c2ccc(C#N)[nH]2)cc1                 no
26    Cn1c(C#N)ccc1-c1ccc(NS(C)(=O)=O)cc1C#N                 no
27    Cn1c(C#N)ccc1-c1ccc(NS(C)(=O)=O)c(F)c1                yes
28      CCS(=O)(=O)Nc1ccc(-c2ccc(C#N)n2C)cc1                yes
29  CC(C)S(=O)(=O)Nc1ccc(-c2ccc(C#N)n2C)c(F)c1                yes
30    CCCn1c(C#N)ccc1-c1ccc(NS(=O)(=O)CC)cc1                 no
31         CCOC(=O)Nc1ccc(-c2ccc(C#N)n2C)cc1                 no
32  CCCS(=O)(=O)Nc1cc(F)c(-c2ccc(C#N)n2C)c(F)c1                yes
33  Cn1c(C#N)ccc1-c1ccc(NS(C)(=O)=O)c(OC(F)(F)F)c1                 no

---

Molecular target: progesterone receptor (Homo sapiens, UniProt P06401)
Assay: T47D alkaline phosphatase assay for progesterone receptor modulator (antagonist) activity
Assay type: cell-based
Parameters: Frozen T47D cells are thawed in a 37° C. water bath and diluted to 280,000 cells/mL in culture medium; endogenous in cells; host or cells: T47D cells
Conditions: T47D cells, antagonist mode in the presence of 1 nM progesterone, 24 hours
property: IC50 (nM)

> print(dat)
                      entry.smiles  measured.result
1  CN(C#N)c1ccc(-c2ccc(C#N)n2C)cc1             88.2

---

Attribute: IC50
Molecular target: progesterone receptor (Homo sapiens, UniProt P06401)
Sequence (P06401 1-933): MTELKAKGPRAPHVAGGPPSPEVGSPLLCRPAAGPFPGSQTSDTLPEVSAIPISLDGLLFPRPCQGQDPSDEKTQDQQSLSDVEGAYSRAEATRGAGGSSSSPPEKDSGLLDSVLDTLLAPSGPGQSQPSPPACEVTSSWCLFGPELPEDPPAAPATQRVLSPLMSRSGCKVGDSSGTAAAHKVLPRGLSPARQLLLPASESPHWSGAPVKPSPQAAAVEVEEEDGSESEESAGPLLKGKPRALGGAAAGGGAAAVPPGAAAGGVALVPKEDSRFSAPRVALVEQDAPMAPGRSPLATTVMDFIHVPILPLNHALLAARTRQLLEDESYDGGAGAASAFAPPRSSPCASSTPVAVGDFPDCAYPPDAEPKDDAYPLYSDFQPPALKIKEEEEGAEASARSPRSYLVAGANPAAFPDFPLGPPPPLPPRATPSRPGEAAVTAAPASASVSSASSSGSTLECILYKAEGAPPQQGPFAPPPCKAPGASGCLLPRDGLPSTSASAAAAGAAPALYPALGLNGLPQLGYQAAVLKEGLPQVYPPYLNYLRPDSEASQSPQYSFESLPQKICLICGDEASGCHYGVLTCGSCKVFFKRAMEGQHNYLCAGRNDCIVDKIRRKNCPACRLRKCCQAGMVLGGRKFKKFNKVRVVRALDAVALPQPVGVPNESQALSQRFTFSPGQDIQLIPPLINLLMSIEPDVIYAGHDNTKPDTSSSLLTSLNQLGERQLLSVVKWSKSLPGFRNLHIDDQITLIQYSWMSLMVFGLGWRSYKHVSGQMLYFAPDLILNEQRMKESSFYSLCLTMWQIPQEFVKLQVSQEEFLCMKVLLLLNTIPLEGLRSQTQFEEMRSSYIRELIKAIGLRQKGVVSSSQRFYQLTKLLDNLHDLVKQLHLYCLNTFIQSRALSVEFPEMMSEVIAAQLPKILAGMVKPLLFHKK
Assay: T47D alkaline phosphatase assay for progesterone receptor modulator (antagonist) activity
Format: cell-based
Set-up: endogenous in cells; host or cells: T47D cells
Settings: T47D cells, antagonist mode in the presence of 1 nM progesterone, 24 hours
property: IC50 (nM)

> print(dat)
                               entry.smiles                              assay.target  property  value.relation.sign  measured.result
1            COc1cc(NC#N)ccc1-c1ccc(C#N)n1C  progesterone receptor (Homo sapiens, UniProt P06401)      IC50                    =             83.9
2       CC(C)C(=O)Nc1ccc(-c2ccc(C#N)n2C)cc1  progesterone receptor (Homo sapiens, UniProt P06401)      IC50                    =              168
3          CCC(=O)Nc1ccc(-c2ccc(C#N)n2C)cc1  progesterone receptor (Homo sapiens, UniProt P06401)      IC50                    =             76.7
4            COc1cc(-c2ccc(C#N)n2C)ccc1NC#N  progesterone receptor (Homo sapiens, UniProt P06401)      IC50                    <              300
5   C#CCn1c(C#N)ccc1-c1ccc(NS(=O)(=O)CC)cc1  progesterone receptor (Homo sapiens, UniProt P06401)      IC50                    =              797
6  CCCS(=O)(=O)Nc1ccc(-c2ccc(C#N)n2C)cc1OC(F)(F)F  progesterone receptor (Homo sapiens, UniProt P06401)      IC50                    =             40.7
7      CC(C)CC(=O)Nc1ccc(-c2ccc(C#N)n2C)cc1  progesterone receptor (Homo sapiens, UniProt P06401)      IC50                    =              304

Reference for the values: patent US20070027201A1
